- EXPERIMENT_SUMMARY: Pharmacokinetic study: plasma cannabinoids after single oral gavage of full-spectrum cannabis extract or individual cannabinoid
- CONDITION_SUMMARY: both, mouse, plasma, po, Cmax, mouse plasma, oral, administered as individual cannabinoid; doses mg/kg: CBDA 50, CBDVA 7, CBGA 7
ASSAY_METRIC: Cmax

{"STRUCTURE": "CCCCCc1cc(O)c(C/C=C(\\C)CCC=C(C)C)c(O)c1C(=O)O", "Cmax": "48 µg/mL"}

For the next question, use this compound.
input: Which value of Cmax has been reported for "C=C(C)[C@@H]1CCC(C)=C[C@H]1c1c(O)cc(CCCCC)c(C(=O)O)c1O" in the records?
output: 6 µg/mL

====

- EXPERIMENT_SUMMARY: Pharmacokinetic study: plasma cannabinoids after single oral gavage of full-spectrum cannabis extract or individual cannabinoid
- CONDITION_SUMMARY: mouse plasma, oral, equivalent doses
ASSAY_METRIC: Total plasma exposure in full-spectrum extract relative to individual compound, fold lower

In the examples that follow, each entry is paired with its recorded Total plasma exposure in full-spectrum extract relative to individual compound, fold lower.
{"COMPOUND": "CCCCCc1cc(O)c2c(c1)OC(C)(C)[C@@H]1CCC(C)=C[C@@H]21 [Δ^9-THC, Δ^9-tetrahydrocannabinol, reference compound]", "RESULT": "2–4 ×"}
{"COMPOUND": "CCCCCc1cc(O)c(C/C=C(\\C)CCC=C(C)C)c(O)c1C(=O)O [CBGA, cannabigerolic acid]", "RESULT": "2–4 ×"}
{"COMPOUND": "C=C(C)[C@@H]1CCC(C)=C[C@H]1c1c(O)cc(CCCCC)cc1O [CBD, cannabidiol]", "RESULT": "2–4 ×"}
{"COMPOUND": "C=C(C)[C@@H]1CCC(C)=C[C@H]1c1c(O)cc(CCC)c(C(=O)O)c1O [CBDVA, cannabidivarinic acid]", "RESULT": "2–4 ×"}

For the next question, use this compound.
input: Which value of Total plasma exposure in full-spectrum extract relative to individual compound, fold lower has been reported for CCCCCc1cc2c(c(O)c1C(=O)O)C1C=C(C)CCC1C(C)(C)O2 (centres unmarked) [Δ^9-THCA, Δ^9-tetrahydrocannabinolic acid] in the records?
output: 2–4 ×

====

Measured tmax accompanies every entry in the list below.
- EXPERIMENT_SUMMARY: Pharmacokinetic study: plasma cannabinoids after single oral gavage of full-spectrum cannabis extract or individual cannabinoid
- CONDITION_SUMMARY: both, mouse, plasma, po, tmax, mouse plasma, oral, administered in full-spectrum extract; doses mg/kg: CBD 25, CBDA 50, CBDVA 7, CBGA 7, THC 15, THCA 50

{"STRUCTURE": "C=C(C)[C@@H]1CCC(C)=C[C@H]1c1c(O)cc(CCCCC)cc1O", "RESULT": "≤ 1 h"}

input: Which value of tmax has been reported for "C=C(C)[C@@H]1CCC(C)=C[C@H]1c1c(O)cc(CCCCC)c(C(=O)O)c1O" in the records?
output: ≤ 1 h

input: Do the same for "CCCCCc1cc(O)c(C/C=C(\C)CCC=C(C)C)c(O)c1C(=O)O" please
output: ≤ 1 h

====

- TARGET_OR_SYSTEM: P-glycoprotein (Homo sapiens, UniProt P08183)
- Sequence (P08183 whole entry): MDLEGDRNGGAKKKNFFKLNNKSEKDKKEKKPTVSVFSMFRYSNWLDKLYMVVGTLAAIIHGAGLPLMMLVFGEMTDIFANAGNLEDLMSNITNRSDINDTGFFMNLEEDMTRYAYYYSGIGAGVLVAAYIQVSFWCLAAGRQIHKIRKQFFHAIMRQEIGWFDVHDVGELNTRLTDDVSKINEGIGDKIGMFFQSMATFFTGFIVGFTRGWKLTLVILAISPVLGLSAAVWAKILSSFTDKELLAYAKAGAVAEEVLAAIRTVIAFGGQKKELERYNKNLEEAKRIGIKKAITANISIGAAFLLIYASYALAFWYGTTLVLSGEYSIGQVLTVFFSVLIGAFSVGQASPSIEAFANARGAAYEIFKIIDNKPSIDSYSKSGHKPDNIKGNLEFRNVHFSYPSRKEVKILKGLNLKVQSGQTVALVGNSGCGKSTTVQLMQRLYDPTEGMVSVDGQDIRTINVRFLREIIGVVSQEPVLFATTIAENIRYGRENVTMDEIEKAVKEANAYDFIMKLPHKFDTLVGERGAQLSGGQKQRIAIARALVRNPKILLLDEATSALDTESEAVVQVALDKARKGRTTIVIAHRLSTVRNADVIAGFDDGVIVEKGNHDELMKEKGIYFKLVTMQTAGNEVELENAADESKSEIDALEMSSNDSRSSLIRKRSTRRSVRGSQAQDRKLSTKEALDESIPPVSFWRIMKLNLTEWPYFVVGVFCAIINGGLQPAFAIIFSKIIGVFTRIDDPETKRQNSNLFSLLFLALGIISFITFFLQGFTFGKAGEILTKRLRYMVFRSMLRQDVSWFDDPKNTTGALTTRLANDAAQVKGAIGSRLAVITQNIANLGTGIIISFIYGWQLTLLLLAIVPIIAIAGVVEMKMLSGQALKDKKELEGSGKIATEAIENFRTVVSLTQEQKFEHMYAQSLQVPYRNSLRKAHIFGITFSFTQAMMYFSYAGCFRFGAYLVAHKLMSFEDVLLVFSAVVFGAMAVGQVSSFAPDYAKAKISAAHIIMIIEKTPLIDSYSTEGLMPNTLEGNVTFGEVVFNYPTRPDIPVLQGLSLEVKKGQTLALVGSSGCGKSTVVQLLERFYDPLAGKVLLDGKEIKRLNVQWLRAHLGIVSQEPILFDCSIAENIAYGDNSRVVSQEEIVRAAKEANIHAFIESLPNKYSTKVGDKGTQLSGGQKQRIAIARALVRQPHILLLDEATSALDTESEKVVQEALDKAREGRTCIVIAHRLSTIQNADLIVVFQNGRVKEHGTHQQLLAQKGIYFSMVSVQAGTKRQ
- EXPERIMENT_SUMMARY: Bidirectional transwell substrate assay, MDCK cells expressing P-glycoprotein
- CONDITION_SUMMARY: P-glycoprotein MDCK cells, 10 µM cannabinoid, basolateral to apical
Measured P (B > A) accompanies every entry in the list below.

In the examples that follow, each entry is paired with its recorded P (B > A).
{"MOLECULE": "C=C(C)[C@@H]1CCC(C)=C[C@H]1c1c(O)cc(CCCCC)c(C(=O)O)c1O [CBDA, cannabidiolic acid]", "P (B > A)": "38 ± 4 × 10^−5 cm/s"}
{"MOLECULE": "C=C(C)[C@@H]1CCC(C)=C[C@H]1c1c(O)cc(CCCCC)cc1O [CBD, cannabidiol]", "P (B > A)": "15 ± 3 × 10^−5 cm/s"}
{"MOLECULE": "CCCCCc1cc2c(c(O)c1C(=O)O)C1C=C(C)CCC1C(C)(C)O2 (stereo not shown) [Δ^9-THCA, Δ^9-tetrahydrocannabinolic acid]", "P (B > A)": "8 ± 3 × 10^−5 cm/s"}

input: Identify the measured P (B > A) of C=C(C)[C@@H]1CCC(C)=C[C@H]1c1c(O)cc(CCC)cc1O [CBDV, cannabidivarin] for P-glycoprotein (Homo sapiens, UniProt P08183).
output: 34 ± 3 × 10^−5 cm/s
